# target_desc: angiotensin II type 1 receptor (Oryctolagus cuniculus)
# Construct: By using a specimen of isolated rabbit blood vessels
# test_details: Angiotensin II antagonistic activity in isolated rabbit blood vessels
# recorded_conditions: angiotensin II (10 nM)-induced contraction of rabbit thoracic aorta ring
measured_parameter: IC50 (µM)

CCCCc1nc(C)n(-c2ncc(OCC)cn2)c(=O)c1Cc1ccc(-c2ccccc2-c2nnn[nH]2)cc1; 0.017

[P] CCCCc1nc(C)n(-c2ncc(OCCCC(=O)NCC)cn2)c(=O)c1Cc1ccc(-c2ccccc2-c2nnn[nH]2)cc1
[Q] CCCCc1nc(C)n(-c2cc3ccccc3cn2)c(=O)c1Cc1ccc(-c2ccccc2-c2nnn[nH]2)cc1
[R] CCCCc1nc(C)n(-c2ncc(OCCCC(=O)N(CC)CC)cn2)c(=O)c1Cc1ccc(-c2ccccc2-c2nnn[nH]2)cc1
### Prompt Given 3 compounds, produce a descending ranking by IC50. # answer = labels listed in requested order
### Response Q, P, R

###

# target_desc: angiotensin II type 1 receptor (Oryctolagus cuniculus)
# Construct: By using a specimen of isolated rabbit blood vessels
# Sequence (P34976 1-359): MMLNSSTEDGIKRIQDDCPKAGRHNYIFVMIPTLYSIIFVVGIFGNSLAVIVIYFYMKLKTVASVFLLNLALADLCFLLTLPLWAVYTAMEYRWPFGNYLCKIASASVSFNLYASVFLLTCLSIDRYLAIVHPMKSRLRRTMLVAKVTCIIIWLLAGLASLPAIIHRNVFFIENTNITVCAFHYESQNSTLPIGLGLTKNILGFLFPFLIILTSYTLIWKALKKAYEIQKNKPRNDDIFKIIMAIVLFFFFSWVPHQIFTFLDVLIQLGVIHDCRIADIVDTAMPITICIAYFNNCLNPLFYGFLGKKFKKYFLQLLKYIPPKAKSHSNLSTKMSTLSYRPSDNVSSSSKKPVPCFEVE
# test_details: Angiotensin II antagonistic activity in isolated rabbit blood vessels
# recorded_conditions: angiotensin II (10 nM)-induced contraction of rabbit thoracic aorta ring
measured_parameter: IC50 (nM)

These solved cases illustrate the format of a correct answer.
CCCCc1nc(C)n(-c2cc(OC)nc(OC)n2)c(=O)c1Cc1ccc(-c2ccccc2-c2nnn[nH]2)cc1; 13
CCCCc1nc(C)n(-c2ncc(O)cn2)c(=O)c1Cc1ccc(-c2ccccc2-c2nnn[nH]2)cc1; 6.3
CCCCc1nc(C)n(-c2ncc(OCCCC(=O)NC)cn2)c(=O)c1Cc1ccc(-c2ccccc2-c2nnn[nH]2)cc1; 9.9

[P] CCCCOc1cnc(-n2c(C)nc(CCCC)c(Cc3ccc(-c4ccccc4-c4nnn[nH]4)cc3)c2=O)nc1
[Q] CCCCc1nc(C)n(-c2ccc3ccccc3n2)c(=O)c1Cc1ccc(-c2ccccc2-c2nnn[nH]2)cc1
[R] CCCCc1nc(C)n(-c2ncccc2C(F)(F)F)c(=O)c1Cc1ccc(-c2ccccc2-c2nnn[nH]2)cc1
[S] CCCCc1nc(C)n(-c2ncc(OCCc3ccc(CC)cn3)cn2)c(=O)c1Cc1ccc(-c2ccccc2-c2nnn[nH]2)cc1
### Prompt Given 4 compounds, produce a descending ranking by IC50. # answer = labels listed in requested order
### Response S, Q, P, R

###

# target_desc: human PPARγ2 (Homo sapiens, UniProt P37231)
# Construct: the amino acids 182 to 505 of human PPARγ2; expressed in transfected cells; host or cells: COS7 cells
# Sequence (P37231 182-505): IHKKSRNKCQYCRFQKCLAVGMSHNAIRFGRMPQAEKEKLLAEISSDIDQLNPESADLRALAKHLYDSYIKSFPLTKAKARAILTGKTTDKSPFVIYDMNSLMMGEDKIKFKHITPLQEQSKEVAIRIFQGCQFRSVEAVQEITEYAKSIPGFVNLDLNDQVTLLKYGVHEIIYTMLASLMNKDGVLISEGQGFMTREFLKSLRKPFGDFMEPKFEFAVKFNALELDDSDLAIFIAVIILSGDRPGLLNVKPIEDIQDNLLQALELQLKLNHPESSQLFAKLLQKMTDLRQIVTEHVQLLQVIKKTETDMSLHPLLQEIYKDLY
# Sequence (P04386 1-147 partner limits assumed): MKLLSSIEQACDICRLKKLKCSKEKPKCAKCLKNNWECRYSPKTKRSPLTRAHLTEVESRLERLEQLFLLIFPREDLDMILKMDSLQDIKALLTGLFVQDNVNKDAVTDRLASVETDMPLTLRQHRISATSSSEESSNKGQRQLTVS
# test_details: PPARγ activation activity, Gal4 chimera luciferase transfection assay using COS7 cells
# Assay type: cell-based
# recorded_conditions: COS7 cells, Gal4-human PPARγ2 LBD chimera, luciferase reporter, 16 hours; read-out: EC50
measured_parameter: EC50 (nM)

CCCCc1nc(C)n(-c2nccs2)c(=O)c1Cc1ccc(-c2ccccc2-c2nnn[nH]2)cc1 [Example 62]; 3390
CCCCc1nc(C)n(-c2ncc(OC(C(=O)O)c3ccccc3)cn2)c(=O)c1Cc1ccc(-c2ccccc2-c2nnn[nH]2)cc1 (centres unmarked) [Example 42]; 4220
CCCCc1nc(C)n(-c2ccc(Cl)cn2)c(=O)c1Cc1ccc(-c2ccccc2-c2nnn[nH]2)cc1 [Example 7]; 1520
CCCCc1nc(C)n(-c2nccc3ccccc23)c(=O)c1Cc1ccc(-c2ccccc2-c2nnn[nH]2)cc1 [Example 67]; 740
CCCCc1nc(C)n(-c2cccc(Br)n2)c(=O)c1Cc1ccc(-c2ccccc2-c2nnn[nH]2)cc1 [Example 8]; 880

[A] CCCCc1nc(C)n(-c2cc(C(F)(F)F)ccn2)c(=O)c1Cc1ccc(-c2ccccc2-c2nnn[nH]2)cc1 [Example 10]
[B] CCCCc1nc(C)n(-c2ncc(OC(C)C)cn2)c(=O)c1Cc1ccc(-c2ccccc2-c2nnn[nH]2)cc1 [Example 23]
[C] CCCCc1nc(C)n(-c2ncccc2Cl)c(=O)c1Cc1ccc(-c2ccccc2-c2nnn[nH]2)cc1 [Example 6]
### Prompt Arrange the 3 entries by EC50 so the values rise. # answer = labels listed in requested order
### Response B, C, A
(B: 890 nM, C: 1690 nM, A: 3890 nM)
